# Tested on: LOC_OS02G54510-cb004;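 further: purified Escherichia coli-expressed rice kinase domain construct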
# Experimental Protocol: thermal shift delta Tm vs DMSO control; higher = stronger stabilization (binding)
# Assay Setup: 12.5 µM; protein concentration 2 µM
Recorded Endpoint: thermal shift delta Tm

Cc1ccc(-n2nc(C(C)(C)C)cc2NC(=O)Nc2ccc(OCCN3CCOCC3)c3ccccc23)cc1 | 0.33 °C

Task item: Hello, please tell me recorded thermal shift delta Tm for this one: CNC(=O)c1ccccc1Sc1ccc2c(/C=C/c3ccccn3)n[nH]c2c1
Reply: 0.12 °C

Task item: Report measured thermal shift delta Tm; entry is CN1CCN(c2ccc(C(=O)Nc3n[nH]c4ccc(Cc5cc(F)cc(F)c5)cc34)c(NC3CCOCC3)c2)CC1 [Entrectinib (RXDX-101)]
Reply: 1.58 °C

Task item: State its thermal shift delta Tm for this molecule: Nc1nc2cc(-c3ccc4ncc(C(=O)N5CCOCC5)n4c3)ccc2o1
Reply: 0.12 °C

Task item: // Input: NC(=O)c1ccc2nc(-c3ccc(Oc4ccc(Cl)cc4)cc3)[nH]c2c1 . Output its thermal shift delta Tm only.
Reply: -0.11 °C

Task item: Answer with the recorded thermal shift delta Tm for the molecule listed here: C=CC(=O)Nc1ccc2ncnc(Nc3ccc(OCc4cccc(F)c4)c(Cl)c3)c2c1
Reply: 0.29 °C

Task item: Read the entry CNC(=O)CN1CCC(Oc2cc3c(Nc4cccc(Cl)c4F)ncnc3cc2OC)CC1 and write its reported thermal shift delta Tm.
Reply: 0.5 °C

Task item: Look up thermal shift delta Tm of CC1Oc2cc(cnc2N)-c2c(nn(C)c2C#N)CN(C)C(=O)c2ccc(F)cc21 (configuration not stated) and report it.
Reply: 0.8 °C

Task item: Given the molecule Cc1ccc(NC(=O)c2ccc(CN3CC[C@H](N(C)C)C3)c(C(F)(F)F)c2)cc1Nc1nccc(-c2cncnc2)n1 , write its reported thermal shift delta Tm.
Reply: 3.32 °C

Task item: Determine from records and report thermal shift delta Tm for OCCn1cc(-c2cnc3nnn(Cc4ccc5ncccc5c4)c3n2)cn1
Reply: 0.54 °C

Task item: Give the value of thermal shift delta Tm reported for the following: C[C@H](NC(=O)c1c(N)nn2cccnc12)c1cc2cccc(C#Cc3cnn(C)c3)c2c(=O)n1-c1ccccc1
Reply: 0.33 °C

Task item: Give thermal shift delta Tm for Cc1ccc(Nc2nccc(N(C)c3ccc4c(C)n(C)nc4c3)n2)cc1S(N)(=O)=O
Reply: 0.61 °C

Task item: Supply thermal shift delta Tm value. Item: CCc1nc(-c2cccc(C)c2)c(-c2ccnc(NC(=O)c3ccccc3)c2)s1
Reply: -0.41 °C

Task item: Give the value of thermal shift delta Tm reported for the following: COc1ccc2[nH]cc(/C=C3\C(=O)Nc4ccc(NC(=O)CCN5CCCCC5)cc43)c2c1
Reply: 0.79 °C
